Tested on: MDA-MB-435
Select the matching outcome among active, inactive

Query: Just curious, what result did O=C(CC12CC3CC(CC(C3)C1)C2)NCCOCCOCCNC(=O)c1cc2c(o1)C(=O)c1ccccc1C2=O get here?
Response: active

Query: Same lookup for CO/N=C(\c1ccccc1)c1cnn(-c2ccccc2)c1N , please.
Response: inactive

Query: Same lookup for Cc1cc(N(CCCl)CCCl)ccc1C=Nc1cccnc1 , please.
Response: inactive

Query: Same lookup for COc1cc2c(-c3nc4cc(Cl)c(F)cc4s3)cc(=O)oc2c(C)c1OC , please.
Response: inactive

Query: Same lookup for O=C1OCC(c2ccc(O)c(O)c2)=C1c1cc(O)c(O)c(O)c1 , please.
Response: inactive

Query: Same lookup for Cn1ncc2cc(-c3cnc(N)c(Cl)c3N3CCC4(CCNC4=O)CC3)ccc21 , please.
Response: inactive

Query: Same lookup for COc1ccc(C2C3=C(NC(=O)C2C#N)c2ccc4ccccc4c2OCC3)cc1 (stereo not given) , please.
Response: inactive

Query: Same lookup for COC[C@H]1C(=O)NCC(=O)N2NCCC[C@H]2C(=O)N(O)[C@H](C)C(=O)O[C@@H](C(C)C)[C@H](NC(=O)[C@](C)(O)[C@]2(O)CC[C@@H](CC(C)C)[C@H](C)O2)C(=O)N2NCCC[C@@H]2C(=O)N1O , please.
Response: active

Query: Same lookup for COCCNCC(O)Cn1c2ccc(Cl)cc2c2cc(Cl)ccc21 (stereo not given) , please.
Response: inactive

Query: Same lookup for CCCC[C@@H]1NC(=O)[C@H](CCCCN)NC(=O)[C@H](CCCNC(=N)N)NC(=O)[C@H](CC(C)C)NC(=O)[C@@H](NC(=O)[C@H](Cc2cccc(Cl)c2)NC(=O)[C@@H]2CCCN2C(=O)[C@@H](NC(C)=O)C(C)C)CCSSC[C@@H](C(=O)N[C@@H](CCCCN)C(=O)N2CCC[C@H]2C(=O)N2CCC[C@H]2C(=O)N[C@@H](CCC(=O)O)C(N)=O)NC(=O)[C@H](Cc2ccccc2)NC(=O)[C@H](CO)NC(=O)[C@H](C)NC(=O)[C@@H]2CCCN2C1=O , please.
Response: inactive

Query: Same lookup for O=C1Nc2ccc(Cl)cc2/C1=C\c1c(-c2ccc(F)cc2)nc2ccccn12 , please.
Response: inactive

Query: Same lookup for COc1ccc(-c2nc(-c3nc4ccc(F)cc4[nH]3)cc3c2[nH]c2ccccc23)cc1 , please.
Response: inactive

Query: Same lookup for CCCOC(=O)N[C@H]1CCc2c(Br)c(OC)c(OC)c(OC)c2-c2ccc(SC)c(=O)cc21 , please.
Response: active

Query: Same lookup for COc1ccccc1-c1cc2c3c(nc4ccccc42)C(=O)c2cccnc2-c3n1 , please.
Response: inactive

Query: Same lookup for CS(=O)(=O)c1nccc(-c2c(-c3cccc(OCc4ccc(F)cc4)c3)nc3sccn23)n1 , please.
Response: inactive

---

System: HS 578T breast
Experiment: NCI tumour cell line growth inhibition, 48 h; in the data active = GI50 below about 0.43 µM; inactive = the rest
Select the matching outcome among t = active, f = inactive

Query: Just curious, what result did Cc1ccc(NS(=O)(=O)c2ccc(-c3cnc(C4CC4)o3)cc2)cc1 get here?
Response: f

Query: Same lookup for C[C@]12CC[C@H](O)CC1=CC[C@@H]1[C@@H]2CC[C@]2(C)C(=O)/C(=C/c3cccc(OCCCn4ccnc4)c3)C[C@@H]12 , please.
Response: f

Query: Same lookup for C[C@@H]1O[C@@H](O[C@H]2C[C@@H](O)[C@]3(CO)C4C(CC[C@]3(O)C2)[C@@]2(O)CC[C@H](C3=CC(=O)OC3)[C@@]2(C)C[C@H]4O)[C@H](O)[C@H](O)[C@H]1O (stereo partly specified) , please.
Response: t

Query: Same lookup for CCC(=O)Sc1ccccc1C(=O)Nc1ccc(Cl)cc1 , please.
Response: f

Query: Same lookup for Cn1ncc2cc(-c3cnc(N)c(Cl)c3N3CCC4(CCNC4=O)CC3)ccc21 , please.
Response: f

Query: Same lookup for OCC1SC(n2cnc3cncnc32)C(O)C1O (stereo unspecified) , please.
Response: f

Reference source for all entries: PubChem BioAssay (NCI)
